Where do the numbers come from? From the kinase profiling compilation of Christmann-Franck et al. (2016).

molecular target: EPHA7 (human) (UniProt Q15375); assay: radiometric filter-binding kinase assay, Kinase HotSpot; settings: compound 0.5 µM; ATP 10 µM
Sequence (Q15375 whole entry, looked up): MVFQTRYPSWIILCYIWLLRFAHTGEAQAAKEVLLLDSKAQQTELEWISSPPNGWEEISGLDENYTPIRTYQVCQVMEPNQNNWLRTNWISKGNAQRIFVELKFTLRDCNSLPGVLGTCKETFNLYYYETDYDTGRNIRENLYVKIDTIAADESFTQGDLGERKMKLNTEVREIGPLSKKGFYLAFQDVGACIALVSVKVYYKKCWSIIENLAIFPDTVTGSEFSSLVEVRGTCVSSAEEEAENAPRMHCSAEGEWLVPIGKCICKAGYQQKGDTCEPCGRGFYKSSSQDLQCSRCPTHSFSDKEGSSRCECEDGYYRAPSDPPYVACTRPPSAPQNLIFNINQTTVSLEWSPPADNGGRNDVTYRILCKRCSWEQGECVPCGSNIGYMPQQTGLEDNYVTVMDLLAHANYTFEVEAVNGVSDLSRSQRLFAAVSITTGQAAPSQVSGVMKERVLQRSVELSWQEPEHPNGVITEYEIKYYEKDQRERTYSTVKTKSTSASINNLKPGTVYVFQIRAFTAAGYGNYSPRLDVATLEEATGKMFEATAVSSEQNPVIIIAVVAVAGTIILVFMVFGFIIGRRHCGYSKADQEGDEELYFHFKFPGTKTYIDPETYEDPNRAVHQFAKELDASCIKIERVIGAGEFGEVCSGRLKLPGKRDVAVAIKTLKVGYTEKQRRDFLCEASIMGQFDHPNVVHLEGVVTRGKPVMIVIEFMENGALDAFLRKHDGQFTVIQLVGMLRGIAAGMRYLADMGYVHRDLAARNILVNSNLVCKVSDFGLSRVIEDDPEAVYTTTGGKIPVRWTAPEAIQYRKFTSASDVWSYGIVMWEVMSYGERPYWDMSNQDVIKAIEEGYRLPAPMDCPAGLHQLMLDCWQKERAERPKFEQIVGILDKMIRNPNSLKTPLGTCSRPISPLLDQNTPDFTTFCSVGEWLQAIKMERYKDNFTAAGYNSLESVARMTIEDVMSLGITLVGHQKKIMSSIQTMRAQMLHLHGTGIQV
Quick list: residual activity per entry.

{"smiles record": "O=C1NC(=O)c2c1c1c3ccccc3[nH]c1c1[nH]c3cc(Br)ccc3c21", "output unit": "%", "residual activity": 95.3}
{"smiles record": "O=c1cc(N2CCOCC2)oc2c(-c3ccccc3)cccc12", "output unit": "%", "residual activity": 102}
{"smiles record": "CCOc1cc2ncnc(Nc3cccc(Br)c3)c2cc1OCC", "output unit": "%", "residual activity": 58.5}
{"smiles record": "N/C(=N\\N=C/c1ccc(-c2cccc([N+](=O)[O-])c2)o1)N[N+](=O)[O-]", "output unit": "%", "residual activity": 97.9}
{"smiles record": "O=C1NC(=O)c2cc(Nc3ccc(F)cc3)c(Nc3ccc(F)cc3)cc21", "output unit": "%", "residual activity": 84.6}
{"smiles record": "COc1cc2ncnc(Nc3ccc(O)c(Br)c3)c2cc1OC", "output unit": "%", "residual activity": 46.1}

###

target: MAP3K5 (human) (UniProt Q99683); assay: radiometric filter-binding kinase assay, Kinase HotSpot; details: compound 0.5 µM; ATP 10 µM
Sequence (Q99683 whole entry, looked up): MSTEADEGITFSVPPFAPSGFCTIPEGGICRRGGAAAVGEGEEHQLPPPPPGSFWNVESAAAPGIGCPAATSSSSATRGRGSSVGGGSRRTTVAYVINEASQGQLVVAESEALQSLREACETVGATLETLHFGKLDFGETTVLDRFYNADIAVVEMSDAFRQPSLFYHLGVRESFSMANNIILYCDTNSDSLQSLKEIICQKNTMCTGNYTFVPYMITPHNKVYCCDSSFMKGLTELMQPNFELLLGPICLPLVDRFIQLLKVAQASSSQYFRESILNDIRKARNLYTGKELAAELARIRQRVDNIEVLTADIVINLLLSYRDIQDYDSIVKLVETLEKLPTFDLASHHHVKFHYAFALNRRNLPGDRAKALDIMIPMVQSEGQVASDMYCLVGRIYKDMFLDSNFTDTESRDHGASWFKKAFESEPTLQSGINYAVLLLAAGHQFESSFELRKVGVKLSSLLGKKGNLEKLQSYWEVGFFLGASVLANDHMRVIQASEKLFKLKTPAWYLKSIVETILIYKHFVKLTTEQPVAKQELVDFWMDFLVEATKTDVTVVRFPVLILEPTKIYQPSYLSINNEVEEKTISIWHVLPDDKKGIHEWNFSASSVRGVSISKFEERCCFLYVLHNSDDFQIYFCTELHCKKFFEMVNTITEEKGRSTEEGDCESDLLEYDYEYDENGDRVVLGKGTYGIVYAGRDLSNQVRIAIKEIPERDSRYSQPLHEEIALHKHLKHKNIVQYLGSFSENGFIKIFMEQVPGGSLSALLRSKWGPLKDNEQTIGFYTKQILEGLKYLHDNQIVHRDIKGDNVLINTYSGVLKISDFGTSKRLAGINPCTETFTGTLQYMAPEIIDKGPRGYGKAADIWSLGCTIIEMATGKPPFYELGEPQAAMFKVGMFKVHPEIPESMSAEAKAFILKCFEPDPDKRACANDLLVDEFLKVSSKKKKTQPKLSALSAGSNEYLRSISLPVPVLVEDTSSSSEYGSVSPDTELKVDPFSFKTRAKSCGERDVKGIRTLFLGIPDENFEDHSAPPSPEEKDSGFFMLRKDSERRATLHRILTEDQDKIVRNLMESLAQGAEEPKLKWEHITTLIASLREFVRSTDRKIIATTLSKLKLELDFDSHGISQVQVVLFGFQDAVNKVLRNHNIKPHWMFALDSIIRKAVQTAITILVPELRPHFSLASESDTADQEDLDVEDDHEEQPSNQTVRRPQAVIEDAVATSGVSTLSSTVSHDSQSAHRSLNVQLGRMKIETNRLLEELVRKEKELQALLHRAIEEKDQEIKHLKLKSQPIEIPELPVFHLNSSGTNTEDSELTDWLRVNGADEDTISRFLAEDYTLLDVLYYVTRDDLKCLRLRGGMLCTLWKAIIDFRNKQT
measured parameter: residual activity (%)

{"smiles record": "O=C(O)c1ccc2c3c1cccc3c(=O)n1c3ccccc3nc21", "measured parameter": "residual activity", "measured": 102}
{"smiles record": "N#Cc1c(NC(=O)c2cccc3ccccc23)sc2c1CCCC2", "measured parameter": "residual activity", "measured": 99}
{"smiles record": "COc1cccc(-c2cc(=O)c3ccccc3o2)c1N", "measured parameter": "residual activity", "measured": 103}
{"smiles record": "CN[C@@H]1C[C@H]2O[C@@](C)([C@@H]1OC)n1c3ccccc3c3c4c(c5c6ccccc6n2c5c31)C(=O)NC4", "measured parameter": "residual activity", "measured": 4.72}
{"smiles record": "O=c1c2ccccc2[nH]c(=S)n1CCN1CCC(=C(c2ccc(F)cc2)c2ccc(F)cc2)CC1", "measured parameter": "residual activity", "measured": 98.1}

###

Quick list: residual activity per entry.
molecular target: YES1 (human); test: radiometric filter-binding kinase assay, Kinase HotSpot; conditions: compound 0.5 µM; ATP 10 µM

{"smiles record": "O=S(=O)(NCCNC/C=C/c1ccc(Br)cc1)c1cccc2cnccc12", "tested target": "YES1 (human)", "residual activity, %": 91.6}
{"smiles record": "Cn1cc(/C=C2\\C(=O)Nc3ccc(S(N)(=O)=O)cc32)c2ccccc21", "tested target": "YES1 (human)", "residual activity, %": 24.2}
{"smiles record": "COc1cc2c(Nc3ccc(Br)cc3F)ncnc2cc1OCC1CCN(C)CC1", "tested target": "YES1 (human)", "residual activity, %": 11.3}
{"smiles record": "c1ccc(-c2cnc(Nc3ccc(OCCN4CCCC4)cc3)s2)cc1", "tested target": "YES1 (human)", "residual activity, %": 42.1}
{"smiles record": "O=c1c(-c2ccc(F)cc2)c(-c2ccncc2)[nH]n1-c1ccc(Cl)cc1", "tested target": "YES1 (human)", "residual activity, %": 85.1}
{"smiles record": "CCOc1cc2ncnc(Nc3cccc(Br)c3)c2cc1OCC", "tested target": "YES1 (human)", "residual activity, %": 43.2}
{"smiles record": "CCc1nc(-c2ccc(OC)cc2)[nH]c1-c1ccncc1", "tested target": "YES1 (human)", "residual activity, %": 95.1}
{"smiles record": "CN[C@@H]1C[C@H]2O[C@@](C)([C@@H]1OC)n1c3ccccc3c3c4c(c5c6ccccc6n2c5c31)C(=O)NC4", "tested target": "YES1 (human)", "residual activity, %": 4.48}
{"smiles record": "O=C(c1ccccc1)c1ccc(N2CCOCC2)cc1O", "tested target": "YES1 (human)", "residual activity, %": 103}
{"smiles record": "COc1cccc(-c2cc(=O)c3ccccc3o2)c1N", "tested target": "YES1 (human)", "residual activity, %": 93.5}
{"smiles record": "O=C1NC(=O)c2c1c1c3ccccc3[nH]c1c1[nH]c3cc(Br)ccc3c21", "tested target": "YES1 (human)", "residual activity, %": 88.4}

###

biological target: UniProt:P29323; experiment: radiometric filter-binding kinase assay, Kinase HotSpot; details: compound 0.5 µM; ATP 10 µM
Sequence (P29323 whole entry, looked up): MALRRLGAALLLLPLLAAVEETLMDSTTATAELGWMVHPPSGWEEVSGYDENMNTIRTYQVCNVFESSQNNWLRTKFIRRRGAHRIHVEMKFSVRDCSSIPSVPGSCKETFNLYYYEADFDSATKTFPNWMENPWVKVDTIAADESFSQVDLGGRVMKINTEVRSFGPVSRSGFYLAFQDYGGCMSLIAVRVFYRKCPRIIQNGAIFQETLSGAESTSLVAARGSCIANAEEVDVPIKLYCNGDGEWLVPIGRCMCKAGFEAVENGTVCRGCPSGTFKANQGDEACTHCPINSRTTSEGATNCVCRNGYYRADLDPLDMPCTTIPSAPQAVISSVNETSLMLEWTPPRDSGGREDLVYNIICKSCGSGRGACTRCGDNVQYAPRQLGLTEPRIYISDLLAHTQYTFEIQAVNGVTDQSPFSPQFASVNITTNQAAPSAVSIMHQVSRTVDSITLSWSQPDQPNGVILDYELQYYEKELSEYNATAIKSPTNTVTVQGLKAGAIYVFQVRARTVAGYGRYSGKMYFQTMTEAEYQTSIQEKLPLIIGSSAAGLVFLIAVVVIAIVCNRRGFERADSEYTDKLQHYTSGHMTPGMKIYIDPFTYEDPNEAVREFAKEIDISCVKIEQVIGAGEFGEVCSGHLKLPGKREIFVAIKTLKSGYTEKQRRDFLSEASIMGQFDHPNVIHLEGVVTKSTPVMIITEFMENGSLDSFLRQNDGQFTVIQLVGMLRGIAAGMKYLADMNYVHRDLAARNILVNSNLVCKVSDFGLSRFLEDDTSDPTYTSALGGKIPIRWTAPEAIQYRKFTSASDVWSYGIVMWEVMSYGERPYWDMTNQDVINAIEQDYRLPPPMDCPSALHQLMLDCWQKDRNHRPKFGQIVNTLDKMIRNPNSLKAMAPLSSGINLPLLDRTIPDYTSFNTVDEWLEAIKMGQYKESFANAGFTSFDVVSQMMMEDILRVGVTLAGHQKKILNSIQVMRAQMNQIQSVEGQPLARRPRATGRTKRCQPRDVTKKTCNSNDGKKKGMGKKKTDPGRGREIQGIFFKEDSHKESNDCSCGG

{"smiles record": "O=C1NC(=O)c2c1c1c3ccccc3[nH]c1c1[nH]c3cc(Br)ccc3c21", "residual activity [%]": 99.5}
{"smiles record": "Cc1cc(Nc2nc(-c3ccccc3)nc3ccccc23)n[nH]1", "residual activity [%]": 76.7}
{"smiles record": "COc1cc2c(cc1OC)-c1[nH]nc(Nc3cccc(F)c3)c1C2", "residual activity [%]": 94.8}
{"smiles record": "O=C(O)c1ccc2c3c1cccc3c(=O)n1c3ccccc3nc21", "residual activity [%]": 104}
{"smiles record": "O=c1[nH]c2ccccc2n1C1CCN(Cc2ccc(-c3nc4cc5[nH]cnc5cc4nc3-c3ccccc3)cc2)CC1", "residual activity [%]": 108}

###

system: SGK1 (human), O00141 [S422D]; assay: radiometric filter-binding kinase assay, Kinase HotSpot; details: compound 0.5 µM; ATP 10 µM
Sequence (O00141 whole entry S422D, looked up): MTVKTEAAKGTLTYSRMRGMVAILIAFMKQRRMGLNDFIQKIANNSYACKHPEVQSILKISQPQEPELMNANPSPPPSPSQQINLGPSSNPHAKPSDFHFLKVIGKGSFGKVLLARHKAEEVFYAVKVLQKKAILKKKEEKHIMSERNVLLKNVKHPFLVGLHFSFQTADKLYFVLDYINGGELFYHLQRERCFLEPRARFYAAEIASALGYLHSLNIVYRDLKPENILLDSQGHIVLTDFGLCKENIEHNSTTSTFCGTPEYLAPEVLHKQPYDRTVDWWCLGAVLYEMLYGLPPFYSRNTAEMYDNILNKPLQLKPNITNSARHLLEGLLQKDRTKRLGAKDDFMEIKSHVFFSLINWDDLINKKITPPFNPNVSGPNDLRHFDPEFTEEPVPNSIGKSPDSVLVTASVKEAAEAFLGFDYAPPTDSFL
measured parameter: residual activity (%)

{"smiles record": "O=C1c2ccccc2-c2nc3nnnn3nc21", "measured": 67.2}
{"smiles record": "Clc1ccc(Nc2nnc(Cc3ccncc3)c3ccccc23)cc1", "measured": 121}
{"smiles record": "COc1ccc(Cl)cc1NC(=O)Nc1cc(C)nc2ccccc12", "measured": 94.7}
{"smiles record": "O=C(c1cc2cc(O)ccc2[nH]1)c1cc2cc(O)ccc2[nH]1", "measured": 74.2}
{"smiles record": "Oc1ccc(Nc2nc(-c3ccc(Cl)cc3)cs2)cc1", "measured": 106}
{"smiles record": "O=C1Nc2ccc(Cl)cc2/C1=C/c1cc(Cl)c(O)c(Cl)c1", "measured": 91.3}
{"smiles record": "Cc1cccc(-c2nc(C(C)(C)C)[nH]c2-c2ccc3c(c2)OCO3)n1", "measured": 99.6}
{"smiles record": "Nc1ccc2ncnc(NCCc3ccc(Oc4ccccc4)cc3)c2c1", "measured": 104}
{"smiles record": "COc1ccc2c(c1)/C(=C/c1cnc[nH]1)C(O)=N2", "measured": 71.5}
{"smiles record": "CC(C)c1nn(-c2c(Cl)cccc2Cl)c2nc(Cc3ccc(OCCO)cc3)nc(O)c12", "measured": 118}
{"smiles record": "N#CCCc1ccc2c(c1)-c1[nH]c3ccc([N+](=O)[O-])cc3c1CC(=O)N2", "measured": 87.9}
{"smiles record": "O=S(=O)(c1cccc2cnccc12)N1CCCNCC1", "measured": 96.6}
{"smiles record": "CN(C)CCCn1cc(C2=C(c3c[nH]c4ccccc34)C(=O)NC2=O)c2ccccc21", "measured": 48.6}
{"smiles record": "O=C(O)c1ccc2c3c1cccc3c(=O)n1c3ccccc3nc21", "measured": 102}
{"smiles record": "Nc1nc(Nc2ccc(S(N)(=O)=O)cc2)nn1C(=S)Nc1c(F)cccc1F", "measured": 48.7}
{"smiles record": "O=C1Cc2c([nH]c3ccc(Br)cc23)-c2ccccc2N1", "measured": 107}
{"smiles record": "Cn1sc(=O)n(Cc2ccccc2)c1=O", "measured": 94}
{"smiles record": "CCC(=O)Nc1ccc2ncnc(Nc3cccc(Br)c3)c2c1", "measured": 84.6}
{"smiles record": "CCOc1cc2ncnc(Nc3cccc(Br)c3)c2cc1OCC", "measured": 120}
{"smiles record": "Cn1cnc2cc3c(Nc4cccc(Br)c4)ncnc3cc21", "measured": 115}
{"smiles record": "C[C@@H]1CCN(C(=O)CC#N)C[C@@H]1N(C)c1ncnc2[nH]ccc12", "measured": 123}
{"smiles record": "CCn1cnc2c(Nc3cccc(Cl)c3)nc(N[C@@H]3CCCC[C@@H]3N)nc21", "measured": 120}
{"smiles record": "Cn1cc(/C=C2\\C(=O)Nc3ccc(S(N)(=O)=O)cc32)c2ccccc21", "measured": 71.8}

###

biological target: DYRK2 (human); assay: radiometric filter-binding kinase assay, Kinase HotSpot; settings: compound 0.5 µM; ATP 10 µM
// map residual activity onto a label; ranges low: < 80%; middle: ≥ 80% and < 90%; high: ≥ 90%

{"smiles record": "O=S(=O)(NCCNC/C=C/c1ccc(Br)cc1)c1cccc2cnccc12", "group": "high"}
{"smiles record": "O=c1[nH]c2ccccc2n1C1CCN(Cc2ccc(-c3nc4cc5[nH]cnc5cc4nc3-c3ccccc3)cc2)CC1", "group": "high"}
{"smiles record": "N#CCCc1ccc2c(c1)-c1[nH]c3ccc([N+](=O)[O-])cc3c1CC(=O)N2", "group": "low"}
{"smiles record": "Cc1cc(Nc2nc(-c3ccccc3)nc3ccccc23)n[nH]1", "group": "middle"}
{"smiles record": "O=C1NC(=O)c2c1c1c3ccccc3[nH]c1c1[nH]c3cc(Br)ccc3c21", "group": "low"}
{"smiles record": "COc1cc2c(N3CCN(C(=O)Nc4ccc(OC(C)C)cc4)CC3)ncnc2cc1OCCCN1CCCCC1", "group": "high"}
{"smiles record": "O=C(O)c1ccc2c3c1cccc3c(=O)n1c3ccccc3nc21", "group": "low"}
{"smiles record": "O=c1c(-c2ccc(F)cc2)c(-c2ccncc2)[nH]n1-c1ccc(Cl)cc1", "group": "middle"}
{"smiles record": "N/C(=N\\N=C/c1ccc(-c2cccc([N+](=O)[O-])c2)o1)N[N+](=O)[O-]", "group": "high"}
